Source of measurements: the supplement of paper PMC13380429

- Test system: U2OS
- Assay Summary: cell viability relative to DMSO; higher = less toxic
- Conditions: 72 h; 10 nM
Each entry below lists one item and its recorded cell viability value.
Output spec: scalar in %, unitless text.

Known results for compounds:
>  <Molecule>
Nc1ccc(O)c(C(=O)O)c1

>  <Measured On>
U2OS

>  <cell viability [%]>
101

$$$$
>  <Molecule>
CCOc1ccc(Nc2nc(-c3c(C)nc4ccccn34)cs2)cc1

>  <Measured On>
U2OS

>  <cell viability [%]>
100

$$$$

Then this compound:
Inquiry: # cell viability lookup, item "Cc1ccc([N+](=O)[O-])cc1S(=O)(=O)N(C)C"
Reply text: 99.7
